# assay-method-text: Test of blood kinetics in the rats
# Assay type: in vivo
# condition-details: rat, plasma, 2 mg/kg; fasted Wistar male rats, oral single dose of mixed solution of five compounds, each compound 2 mg/5 mL/kg, n=5, LC-MS; read-out: AUC0-∞ (area under the curve for concentration in blood, time 0 to infinite hours)
readout-kind: log10 AUC(0-inf) (log10 of the value in ng·h/mL)
Scale type: logarithmic (base 10). Underlying AUC(0-inf) unit: ng·h/mL.

Recorded log10 AUC(0-inf), per entry:
Return the recorded log10 AUC(0-inf) value; entry: Cn1cc(C[C@H](NC(=O)C=Cc2ccccc2F)C(=O)O)c2ccccc21 [Compound 27]
5.61

Return the recorded log10 AUC(0-inf) value; entry: COc1ccc(C[C@H](NC(=O)C=Cc2cc(F)ccc2F)C(=O)O)cc1 [Compound 52]
4.58

Return the recorded log10 AUC(0-inf) value; entry: N#CC(=Cc1ccccc1F)C(=O)N[C@@H](Cc1c[nH]c2ccccc12)C(=O)O [Compound 22]
4.06

Return the recorded log10 AUC(0-inf) value; entry: O=C(C=Cc1cc(F)ccc1F)N[C@@H](Cc1c[nH]c2ccccc12)C(=O)O [Compound 15]
4.29

Return the recorded log10 AUC(0-inf) value; entry: COc1ccc(C[C@H](NC(=O)C=Cc2ccc(F)cc2F)C(=O)O)cc1 [Compound 51]
5.06

Next:
Return the recorded log10 AUC(0-inf) value; entry: COc1ccc(C[C@H](NC(=O)C=Cc2ccc(F)cc2)C(=O)O)cc1 [Compound 42]
4.76

Return the recorded log10 AUC(0-inf) value; entry: O=C(C=Cc1c(F)cccc1F)N[C@@H](Cc1c[nH]c2ccccc12)C(=O)O [Compound 13]
4.67

Return the recorded log10 AUC(0-inf) value; entry: Cn1cc(C[C@H](NC(=O)C=Cc2ccc(C#N)cc2)C(=O)O)c2ccccc21 [Compound 36]
4.06

* * *

# Test system: ddY-type mice
# assay-method-text: Analgesic efficacy test (1): acetic acid writhing test (nociceptive pain model animal)
# Format: in vivo
# condition-details: Mus musculus, 25 min; writhing number, male ddY mice, oral single dose 100 mg/kg, acetic acid i.p. 25 min after administration, mean ± standard error; read-out: Percent Suppression (%)
Recorded inhibition in vivo at 100 mg/kg values for a group of molecules are listed next.
Express the result in % but write the number alone.

Recorded inhibition in vivo at 100 mg/kg, per entry:
Return the recorded inhibition in vivo at 100 mg/kg value; entry: `COc1ccc(C[C@H](NC(=O)C=Cc2c(F)cccc2F)C(=O)O)cc1`
35.1

Return the recorded inhibition in vivo at 100 mg/kg value; entry: O=C(C=Cc1ccccc1F)N[C@@H](CO)C(=O)O [Compound 66, N-[3-(2-Fluorophenyl)acryloyl]-L-serine]
56

Return the recorded inhibition in vivo at 100 mg/kg value; entry: `COc1ccc(C[C@H](NC(=O)C=Cc2cccc(C#N)c2)C(=O)O)cc1`
33.3

Return the recorded inhibition in vivo at 100 mg/kg value; entry: `COc1ccc(C[C@H](NC(=O)C=Cc2ccccc2Cl)C(=O)O)cc1`
31.8

Return the recorded inhibition in vivo at 100 mg/kg value; entry: `O=C(C=Cc1cccc(F)c1)N[C@@H](Cc1c[nH]c2ccccc12)C(=O)O`
42.4

Return the recorded inhibition in vivo at 100 mg/kg value; entry: `C=CC(=O)N[C@@H](Cc1ccc(OC)cc1)C(=O)O`
52

Next:
Return the recorded inhibition in vivo at 100 mg/kg value; entry: `O=C(N[C@@H](Cc1c[nH]c2ccccc12)C(=O)O)c1cc2ccccc2o1`
41.6

* * *

# System: ddY-type mice
# assay-method-text: Analgesic efficacy test (1): acetic acid writhing test (nociceptive pain model animal)
# Assay type: in vivo
# condition-details: Mus musculus, 25 min; writhing number, male ddY mice, oral single dose 100 mg/kg, acetic acid i.p. 25 min after administration, mean ± standard error; read-out: Percent Suppression (%)
Returns one of Satisfied or Not satisfied; Satisfied when inhibition in vivo at 100 mg/kg is >= 40%.

Below are worked cases with known answers.
Exam item: decide whether the reported inhibition in vivo at 100 mg/kg for `O=C(C=Cc1ccccc1Cl)N[C@@H](Cc1c[nH]c2ccccc12)C(=O)O` is at least 40%.
Not satisfied

Exam item: decide whether the reported inhibition in vivo at 100 mg/kg for `COc1ccc(C[C@H](NC(=O)C=Cc2ccccc2C(F)(F)F)C(=O)O)cc1` is at least 40%.
Not satisfied

Exam item: decide whether the reported inhibition in vivo at 100 mg/kg for `COc1ccc(C[C@H](NC(=O)C=Cc2cc(C(F)(F)F)cc(C(F)(F)F)c2)C(=O)O)cc1` is at least 40%.
Not satisfied

Exam item: decide whether the reported inhibition in vivo at 100 mg/kg for `N#Cc1ccc(C=CC(=O)N[C@@H](Cc2c[nH]c3ccccc23)C(=O)O)cc1` is at least 40%.
Satisfied

Exam item: decide whether the reported inhibition in vivo at 100 mg/kg for `COc1ccc(C[C@H](NC(=O)C=Cc2ccccc2C#N)C(=O)O)cc1` is at least 40%.
Not satisfied

// next entry
Exam item: decide whether the reported inhibition in vivo at 100 mg/kg for `NC(=O)[C@H](Cc1c[nH]c2ccccc12)NC(=O)C=Cc1ccccc1F` is at least 40%.
Satisfied

* * *

Recorded melting point values for a group of molecules are listed next.
Counter-ions that a name gives are not always drawn.

Return the recorded melting point value; entry: O=C(C=Cc1ccc(O)cc1)N[C@@H](Cc1c[nH]c2ccccc12)C(=O)O (as salt: sodium)
158 to 159 °C

Return the recorded melting point value; entry: O=C(C=Cc1cccc(O)c1)N[C@@H](Cc1c[nH]c2ccccc12)C(=O)O (as salt: sodium)
163 to 164 °C

Return the recorded melting point value; entry: O=C(C=Cc1ccccc1O)N[C@@H](Cc1c[nH]c2ccccc12)C(=O)O (as salt: sodium)
172 to 173 °C

Next:
Return the recorded melting point value; entry: `O=C(C=Cc1ccccc1F)N[C@@H](Cc1c[nH]c2ccccc12)C(=O)O`
104 to 105 °C

Return the recorded melting point value; entry: N#Cc1ccccc1C=CC(=O)N[C@@H](Cc1c[nH]c2ccccc12)C(=O)O (as salt: sodium)
124 to 125 °C

Return the recorded melting point value; entry: O=C(C=Cc1ccc(F)cc1)N[C@@H](Cc1c[nH]c2ccccc12)C(=O)O (as salt: sodium)
140 to 141 °C

Return the recorded melting point value; entry: C=CC(=O)N[C@@H](Cc1c[nH]c2ccccc12)C(=O)O (as salt: sodium)
150 to 151 °C

* * *

Recorded log10(AUC(0-inf)) values for a group of compounds are listed next.
# assay-method-text: Test of blood kinetics in the rats
# Assay type: in vivo
# condition-details: rat, plasma, 2 mg/kg; fasted Wistar male rats, oral single dose of mixed solution of five compounds, each compound 2 mg/5 mL/kg, n=5, LC-MS; read-out: AUC0-∞ (area under the curve for concentration in blood, time 0 to infinite hours)
Scale type: logarithmic (base 10). Underlying AUC(0-inf) unit: ng·h/mL.

Recorded log10(AUC(0-inf)), per entry:
Return the recorded log10(AUC(0-inf)) value; entry: `C=CC(=O)N[C@@H](Cc1ccc(OC)cc1)C(=O)O`
3.93

Return the recorded log10(AUC(0-inf)) value; entry: `COc1ccc(C[C@H](NC(=O)C=Cc2ccc(C#N)cc2)C(=O)O)cc1`
3.85

Return the recorded log10(AUC(0-inf)) value; entry: `Cn1cc(C[C@H](NC(=O)C=Cc2ccccc2)C(=O)O)c2ccccc21`
5.38

Return the recorded log10(AUC(0-inf)) value; entry: `O=C(C=Cc1ccc(F)cc1F)N[C@@H](Cc1c[nH]c2ccccc12)C(=O)O`
4.53

Return the recorded log10(AUC(0-inf)) value; entry: `O=C(N[C@@H](Cc1c[nH]c2ccccc12)C(=O)O)c1cc2ccccc2o1`
4.01

Return the recorded log10(AUC(0-inf)) value; entry: `O=C(C=Cc1cccc(F)c1)N[C@@H](Cc1c[nH]c2ccccc12)C(=O)O`
4.46

Return the recorded log10(AUC(0-inf)) value; entry: `Cn1cc(C[C@H](NC(=O)C(C#N)=Cc2ccccc2F)C(=O)O)c2ccccc21`
3.83

Return the recorded log10(AUC(0-inf)) value; entry: `O=C(C=Cc1ccccc1F)N[C@@H](Cc1c[nH]c2ccccc12)C(=O)O`
4.42

Next:
Return the recorded log10(AUC(0-inf)) value; entry: `Cn1cc(C[C@H](NC(=O)C=Cc2cccc(C#N)c2)C(=O)O)c2ccccc21`
4.22

Return the recorded log10(AUC(0-inf)) value; entry: `O=C(C=Cc1ccccc1)N[C@@H](Cc1c[nH]c2ccccc12)C(=O)O`
4.34

Return the recorded log10(AUC(0-inf)) value; entry: `Cn1cc(C[C@H](NC(=O)C=Cc2ccccc2C#N)C(=O)O)c2ccccc21`
4.13

Return the recorded log10(AUC(0-inf)) value; entry: `COc1ccc(C[C@H](NC(=O)C=Cc2ccccc2F)C(=O)O)cc1`
4.79

Return the recorded log10(AUC(0-inf)) value; entry: `C=CC(=O)N[C@@H](Cc1c[nH]c2ccccc12)C(=O)O`
4.38

Return the recorded log10(AUC(0-inf)) value; entry: `O=C(C=Cc1ccc(F)cc1)N[C@@H](Cc1c[nH]c2ccccc12)C(=O)O`
4.16

Return the recorded log10(AUC(0-inf)) value; entry: `N#CC(=Cc1ccccc1)C(=O)N[C@@H](Cc1c[nH]c2ccccc12)C(=O)O`
3.83

Return the recorded log10(AUC(0-inf)) value; entry: `O=C(C=Cc1ccccc1F)N[C@H](Cc1c[nH]c2ccccc12)C(=O)O`
5.17

Return the recorded log10(AUC(0-inf)) value; entry: `Cn1cc(C[C@H](NC(=O)C=Cc2ccc(F)cc2)C(=O)O)c2ccccc21`
5.26

Return the recorded log10(AUC(0-inf)) value; entry: `COc1ccccc1C=CC(=O)N[C@@H](Cc1c[nH]c2ccccc12)C(=O)O`
4.03
